TARGET SYSTEM: mutant auxin receptor (TIR1 F79G) (Arabidopsis thaliana, UniProt Q570C0, F79G)
Construct: expressed in transfected cells; host or cells: Saccharomyces cerevisiae strain EGY48
Sequence (Q38822 1-93): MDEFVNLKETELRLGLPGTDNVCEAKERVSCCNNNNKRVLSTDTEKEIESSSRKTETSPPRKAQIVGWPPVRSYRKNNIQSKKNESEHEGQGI
Sequence (Q570C0 whole entry F79G): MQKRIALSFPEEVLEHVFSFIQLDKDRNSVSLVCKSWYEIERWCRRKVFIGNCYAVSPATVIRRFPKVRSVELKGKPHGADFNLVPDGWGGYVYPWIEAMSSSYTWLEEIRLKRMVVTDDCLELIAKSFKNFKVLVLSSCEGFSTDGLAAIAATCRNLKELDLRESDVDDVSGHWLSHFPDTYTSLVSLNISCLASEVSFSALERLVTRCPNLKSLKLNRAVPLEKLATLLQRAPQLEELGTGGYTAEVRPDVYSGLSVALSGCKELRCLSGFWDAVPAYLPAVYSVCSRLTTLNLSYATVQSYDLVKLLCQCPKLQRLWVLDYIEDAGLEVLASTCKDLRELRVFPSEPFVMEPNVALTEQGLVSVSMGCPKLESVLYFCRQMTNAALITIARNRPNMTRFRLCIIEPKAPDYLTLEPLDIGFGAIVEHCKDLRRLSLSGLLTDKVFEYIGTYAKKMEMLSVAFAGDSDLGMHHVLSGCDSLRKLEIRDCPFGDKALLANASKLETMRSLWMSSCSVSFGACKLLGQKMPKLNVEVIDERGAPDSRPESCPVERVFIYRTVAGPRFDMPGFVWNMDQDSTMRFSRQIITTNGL
METHOD DESCRIPTION: Evaluation of binding to auxin receptor (yeast two-hybrid assay), mutant TIR1 F79G
COND: yeast EGY48, LacZ reporter, X-gal, 30° C. for 3 days; TIR1 F79G with AUX/IAA protein
# key: entry, value: mut TIR: minimum concentration of the test compound in which the well turns blue
Numbers only here, please. The scale is µM.

Cc1ccccc1-c1ccc2[nH]cc(CC(=O)O)c2c1 :: 0.1

Query :: Give the measured mut TIR: minimum concentration of the test compound in which the well turns blue of O=C(O)Cc1c[nH]c2ccc(-c3ccc4ccccc4c3)cc12 [Example 27D, 5-(2-naphthyl)-indole-3-acetic acid] .
Result :: 0.1

Query :: Give the measured mut TIR: minimum concentration of the test compound in which the well turns blue of Cc1ccc(Cl)c(-c2ccc3[nH]cc(CC(=O)O)c3c2)c1 .
Result :: 10
